Every entry's value here was drawn from ChEMBL document CHEMBL1201862.

Provide the reported GI50 of each item.
Test system: DU-145
Assay: NCI tumour cell line growth inhibition, 48 h
Activity calls are given as the source filed them. No stated cut-off is given here; in the data, active = GI50 up to about 1.1 µM and inactive = higher.

// query Reported GI50 for CCNC(=S)N/N=C/c1ccccn1 : what is it?
// result 7.13 µM (inactive)

// query Param item: COC1(OC)CC(CO)(COc2cc(Cl)nc(N)n2)C1
// result > 100 µM (inactive)

// query Query O=C(c1nc2ccc([N+](=O)[O-])cc2nc1O)C(O)c1ccc2c(c1)OCO2 (configuration not stated) next
// result > 100 µM (inactive)

// query Entry to check: COc1ccc(Nc2nc(N)c(C(=O)c3c[nH]c4ccccc34)s2)cc1
// result 2.2 µM (inactive)

// query Thanks! And CCCCCCCCOCC1S(=O)(=O)OCCOS1(=O)=O ?
// result > 100 µM (inactive)

// query Please do the same for CC(C)(C)C(=O)N(C(=S)OCc1ccccn1)c1ccccc1 as well.
// result 38.6 µM (inactive)

// query How about this compound: O=C1CCCCC/C1=C\c1cccc(Cl)c1
// result > 100 µM (inactive)

// query Quick one: CN(C)CC1CCC/C(=C\c2ccccc2)C1=O (configuration not stated)
// result 15.3 µM (inactive)

// query Another compound to check: NCc1ccc(C(=O)O)cc1
// result > 100 µM (inactive)

// query Can you handle CN(C)CC(CO)(CN(C)C)CN(C)C next?
// result > 100 µM (inactive)

// query COc1ccc(CC2COc3cc(O)cc(O)c3C2=O)cc1O (configuration not stated) ?
// result 9.48 µM (inactive)

// query Also N#CCCN(CCN(CCC#N)C(=O)Nc1ccccc1)C(=O)Nc1ccccc1 , if possible.
// result 76.9 µM (inactive)

###

What GI50 was measured for each of the following?
Tested on: OVCAR-5
Assay: NCI tumour cell line growth inhibition, 48 h
Active and inactive are the calls of the source. No stated cut-off is given here; in the data, active = GI50 up to about 1.1 µM and inactive = higher.

// query Give its GI50 value. Item: COc1ccc(/C=C/c2cnc3ccccc3n2)cc1OC
// result > 100 µM (inactive)

// query Also COc1cc([C@@H]2c3cc4c(cc3[C@@H](Nc3ccc(NC(=O)c5cc(NC(=O)c6cc([N+](=O)[O-])cn6C)cn5C)cc3)[C@H]3COC(=O)[C@H]23)OCO4)cc(OC)c1O , if possible.
// result > 61.4 µM (inactive)

// query Repeat for the following compound: CCCCCCCCCCC(C)CCCCCCC(=O)OCC(COP(=O)([O-])OCC[N+](C)(C)C)OC(=O)CCCCCCC(C)CCCCCCCCCC (centres undefined)
// result > 100 µM (inactive)

// query Then this compound: COc1cc(CNc2ccc3nc4n(c(=O)c3c2)CCCCC4)cc(OC)c1OC
// result > 100 µM (inactive)

###

Tested on: HOP-62
Experiment: NCI tumour cell line growth inhibition, 48 h
Activity calls are given as the source filed them. Rule as the data show it: active = GI50 up to about 1.1 µM and inactive = higher.
quantityMeasured: GI50

// query GI50 value for entry O=C(CCC(NC(=O)OCc1ccccc1)C(=O)OCc1ccccc1)Nc1cccc(OCc2ccccc2)c1 (stereo unspecified)
// result 28.6 µM (inactive)

// query Queued: Cn1nc(-c2ccccc2)c(C(=O)/C=C/c2ccccc2)c(N2CCCC2)c1=O
// result 11.9 µM (inactive)

// query Would you mind doing O=C1Nc2ccccc2C1S(=O)(=O)c1ccccc1 (stereo unspecified) as well?
// result > 100 µM (inactive)

// query What would you report for Cc1c(/N=N/c2ccccc2)c(C)n(C2OC(CO)C(O)C(O)C2O)c(=S)c1C#N (stereo unspecified) ?
// result 25.5 µM (inactive)

// query Repeat with O=c1[nH]cnc2c(COCCCO)c[nH]c12
// result > 100 µM (inactive)

// query How about this compound: COc1cc(OC)c2c(C)cc(=O)oc2c1
// result > 100 µM (inactive)

// query Next entry: Cn1c(=O)c2nc3sc4c(n3c2n(C)c1=O)C(=O)c1ccccc1C4=O
// result > 38.9 µM (inactive)

// query Queued: CC(=N/NC(=S)N1CCCCC1)/C(=N\NC(=S)N1CCCCC1)c1ccccc1
// result 2.04 µM (inactive)

// query Follow-up item: CC(C)[C@H]1CO[C@@H]2O[C@H](C)CC(=O)N21
// result > 100 µM (inactive)

// query Another compound to check: CCCCCCC1NN(C(C)=O)C(CCCCCC)NN1C(C)=O (stereo unspecified)
// result > 100 µM (inactive)

// query Same read-out for CC1OC1C(=O)P(=O)(O)O (stereo unspecified) ?
// result > 100 µM (inactive)

###

Tested on: HL-60
Assay: NCI tumour cell line growth inhibition, 48 h
Activity calls are given as the source filed them. No stated cut-off is given here; in the data, active = GI50 up to about 1.1 µM and inactive = higher.
// one of Yes = active, No = inactive, no free text

// query Outcome? O=C1c2ccccc2C(=O)c2[nH]c(=O)c(/C=N/Nc3ccc([N+](=O)[O-])cc3)nc21
// result No

// query Would you mind doing CC1(C)[C@H](C(=O)O)N2C(=O)[C@@H](NS(=O)(=O)c3ccc([N+](=O)[O-])cc3)[C@H]2S1(=O)=O as well?
// result No

// query Cool, now N#CCc1nc(-c2ccccc2)n[nH]1
// result No

// query Moving on to the next compound: COc1cc(C2c3cc4c(cc3OC(NC3CCCCC3)C2C)OCO4)cc(OC)c1OC (stereo not given)
// result Yes

// query Do the same for COC(=O)C1=CO[C@@H](OC2OC(CO)C(O)C(O)C2O)[C@@H]2[C@H](C)[C@@H](O)[C@@H](O)[C@]12O (stereo not given in full) please
// result No

// query Param item: CCc1nc2c(n1CC)C(=O)c1ccccc1C2=O
// result No

// query Input O=c1cc(O)c2ccccc2o1 [4-HYDROXYCOUMARINS]
// result No

// query Proceed to CCCCCCCCCc1c(O)c(O)c(CCCCCCCCC)c(CCCCCCCCC)c1CCCCCCCCC
// result No

// query Would you kindly repeat that for COC(=O)C1=NC(=S)NC(c2ccccc2)C1c1nc2ccccc2o1 (stereo not given) ?
// result No

// query Follow-up item: Clc1ccc(CCn2ccc3ccccc32)c(Cl)c1
// result No

###

Would you mind telling me the reported GI50 of each entry?
System: MDA-N
Experiment: NCI tumour cell line growth inhibition, 48 h
Activity calls are given as the source filed them. Rule as the data show it: active = GI50 up to about 1.1 µM and inactive = higher.

// query GI50 value for entry OCCNCCN1CCN(CCCN2c3ccccc3Sc3ccc(C(F)(F)F)cc32)CC1
// result 19 µM (inactive)

// query Further, for O=C1OC(c2ccccc2)=N/C1=C\c1ccccc1 ?
// result 44.7 µM (inactive)

// query And for CN(C(=O)Cc1ccccc1)n1cn[n+](CC(=O)OC(C)(C)C)c1 ?
// result > 10 µM (inactive)

// query Query CC(=N/NC(=S)N1CCCCC1)/C(=N\NC(=S)N1CCCCC1)c1ccccc1 next
// result 2.61 µM (inactive)

// query Cool, now CCCNC(=S)N/N=C/c1cccc(C)n1
// result 30.6 µM (inactive)

// query Same thing, different molecule: O=C(NCCCNCCCCNCCCNC(=O)C(F)(F)F)C(F)(F)F
// result > 100 µM (inactive)

###

Tested on: HOP-62
Assay: NCI tumour cell line growth inhibition, 48 h
The source made the active and inactive calls. Rule as the data show it: active = GI50 up to about 1.1 µM and inactive = higher.
quantityMeasured: GI50

// query Value lookup for GI50; key = COc1cccc(/C=N/C(/N=C/c2cccc(OC)c2O)c2cccc(OC)c2O)c1O
// result 29.4 µM (inactive)

// query Try the molecule COC(=O)C(C(=O)C(=O)Nc1ccc(C)cc1C)c1nc2ccc([N+](=O)[O-])cc2nc1O (stereo not given)
// result > 100 µM (inactive)

// query Lookup CN1C2CCC1C(C(O)c1ccccc1[N+](=O)[O-])C(=O)C2 (stereo not given)
// result 45.3 µM (inactive)

// query Next molecule: COC(=O)C(C)(C)[C@@H]1OC(=O)N(S(=O)(=O)c2c(C)cc(C)cc2C)[C@H]1C(C)C
// result > 100 µM (inactive)

// query Another molecule to check: CC(C)(C)c1cc(/C=C2/NC(=O)NC2=O)cc(C(C)(C)C)c1O
// result 17.1 µM (inactive)

// query Also O=C(CCCN1CCC(C(O)c2ccc(F)cc2)CC1)c1ccc(F)cc1 (stereo not given) ?
// result 62.8 µM (inactive)

// query Same question for O=C(/C=C/c1ccc(Cl)c(Cl)c1)c1cccc2ccccc12 please.
// result 17 µM (inactive)

// query Could you do the same for CC12ON(P(=O)(c3ccccc3)c3ccccc3)C(C)(c3ccccc31)c1ccccc12 , please?
// result > 100 µM (inactive)

// query Again, but for Cc1nc(N)nc(N)c1CCCCc1ccc(N)cc1
// result 5.11 µM (inactive)

// query Follow-up item: C[C@]12CC[C@H](O)C=C1CC[C@@H]1[C@@H]2CC[C@]2(C)C(=N/O)/C(=C/c3ccncc3)C[C@@H]12
// result 13.2 µM (inactive)
